Entry source: ChEMBL document CHEMBL3997780

Please respond with reported IC50 for every item in the list.
tested on: A549; assay: Cytotoxicity against human A549 cells assessed as decrease in cell viability by MTT assay; type: functional, cell-based
All answers are understood in µM, so give the number only.

Short answer on A549 for COc1ccc(Nc2ncnc3c2C(c2cc(OC)ccc2OC)c2ccc4ccccc4c2O3)cc1 (stereo not given) , IC50: 7.2

The molecule c1ccc(CCNc2ncnc3c2C(c2ccccc2)c2ccc4ccccc4c2O3)cc1 (stereo not given) , when measured on A549, yielded IC50 of 68.5

Note to self: IC50 of Clc1ccccc1CNc1ncnc2c1C(c1ccccc1)c1ccc3ccccc3c1O2 (stereo not given) with A549 was 9.6

Reading of IC50 for Fc1ccccc1Nc1ncnc2c1C(c1ccccc1)c1ccc3ccccc3c1O2 (stereo not given) with A549: 5.4

Let me check: COc1ccc(Nc2ncnc3c2C(c2ccccc2)c2ccc4ccccc4c2O3)c(OC)c1 (stereo not given) , system A549, measured IC50 is 10.9

Entry COc1ccc(Nc2ncnc3c2C(c2cc(OC)c(OC)c(OC)c2)c2ccc4ccccc4c2O3)cc1 (stereo not given) , tested on A549, has a reported IC50 of 46.5

Noted IC50 for COc1cc(C2c3ccc4ccccc4c3Oc3ncnc(NCc4ccccc4)c32)cc(OC)c1OC (stereo not given) , tested on A549: 26.5

Test item COc1cc(C2c3ccc4ccccc4c3Oc3ncnc(Nc4ccccc4)c32)cc(OC)c1OC (stereo not given) ; A549; reported IC50 was 18.6

Field IC50 (A549), entry COc1ccc(OC)c(C2c3ccc4ccccc4c3Oc3ncnc(Nc4ccc(Br)cc4)c32)c1 (stereo not given) : 26.8

====

tested on: HeLa; assay: Cytotoxicity against human HeLa cells assessed as decrease in cell viability by MTT assay; assay type: functional, cell-based
Define the label as condition met when IC50 is strictly less than 20 µM and as condition not met in all remaining cases.

[ask] Confirm or reject: IC50 of Clc1ccccc1CNc1ncnc2c1C(c1ccccc1)c1ccc3ccccc3c1O2 (stereo not given) lies strictly below 20 µM
[reply] condition met

[ask] For this compound, is IC50 lower than 20 µM? COc1ccc(Nc2ncnc3c2C(c2cc(OC)ccc2OC)c2ccc4ccccc4c2O3)cc1 (stereo not given)
[reply] condition met

[ask] Determine if COc1cc(C2c3ccc4ccccc4c3Oc3ncnc(Nc4ccccc4)c32)cc(OC)c1OC (stereo not given) shows IC50 strictly lower than 20 µM.
[reply] condition not met

[ask] Dear reviewer, please state whether COc1ccc(OC)c(C2c3ccc4ccccc4c3Oc3ncnc(Nc4ccc(Br)cc4)c32)c1 (stereo not given) has IC50 strictly beneath 20 µM.
[reply] condition met

[ask] Does Cc1ccc(Nc2ncnc3c2C(c2ccccc2)c2ccc4ccccc4c2O3)c(C)c1 (stereo not given) have IC50 strictly under 20 µM?
[reply] condition met

====

test system: A549; experiment: Cytotoxicity against human A549 cells assessed as decrease in cell viability by MTT assay; type: functional, cell-based
// returns Not fulfilled unless IC50 is strictly below 10 µM, in which case Fulfilled

[ask] A record lists c1ccc(CNc2ncnc3c2C(c2ccccc2)c2ccc4ccccc4c2O3)cc1 (stereo not given) . Is its IC50 below 10 µM?
[reply] Not fulfilled

[ask] In plain terms, does COc1ccc(OC)c(C2c3ccc4ccccc4c3Oc3ncnc(Nc4ccc(F)cc4)c32)c1 (stereo not given) come in under 10 µM for IC50?
[reply] Fulfilled

[ask] Hello, I'm reviewing records and need to know if IC50 of COc1ccc(CCNc2ncnc3c2C(c2ccccc2)c2ccc4ccccc4c2O3)c(OC)c1 (stereo not given) is below 10 µM. Could you check?
[reply] Not fulfilled

[ask] Record COc1cc(C2c3ccc4ccccc4c3Oc3ncnc(NCc4ccccc4Cl)c32)cc(OC)c1OC (stereo not given) : is its IC50 strictly below 10 µM?
[reply] Not fulfilled

[ask] Say whether its IC50 is strictly beneath 10 µM. Entry: c1ccc(Nc2ncnc3c2C(c2ccccc2)c2ccc4ccccc4c2O3)cc1 (stereo not given)
[reply] Not fulfilled

[ask] Is it true that IC50 reported for Cc1ccc(Nc2ncnc3c2C(c2ccccc2)c2ccc4ccccc4c2O3)c(C)c1 (stereo not given) is less than 10 µM?
[reply] Not fulfilled

[ask] Identify whether the compound COc1ccc(OC)c(C2c3ccc4ccccc4c3Oc3ncnc(Nc4ccc(Cl)cc4)c32)c1 (stereo not given) records IC50 below 10 µM.
[reply] Not fulfilled

[ask] State whether 10 µM exceeds IC50 recorded for Clc1ccc(Nc2ncnc3c2C(c2ccccc2)c2ccc4ccccc4c2O3)cc1 (stereo not given) .
[reply] Not fulfilled

[ask] Just wondering, is IC50 of CCc1ccc(Nc2ncnc3c2C(c2ccccc2)c2ccc4ccccc4c2O3)cc1 (stereo not given) below 10 µM?
[reply] Not fulfilled

[ask] Determine whether this compound shows IC50 lower than 10 µM (ties excluded): COc1ccc(OC)c(C2c3ccc4ccccc4c3Oc3ncnc(Nc4ccccc4F)c32)c1 (stereo not given)
[reply] Fulfilled

====

tested on: HeLa; experiment: Cytotoxicity against human HeLa cells assessed as decrease in cell viability by MTT assay; type: functional, cell-based
Entries whose IC50 is below 10 µM take 1; entries at or above 10 µM take -1.

[ask] # check: IC50 < 10 µM for c1ccc(Nc2ncnc3c2C(c2ccccc2)c2ccc4ccccc4c2O3)cc1 (centres undefined)
[reply] 1

[ask] IC50 strictly < 10 µM for this compound? COc1cc(C2c3ccc4ccccc4c3Oc3ncnc(NCc4ccccc4)c32)cc(OC)c1OC (centres undefined)
[reply] -1

[ask] Report whether reported IC50 is lower than 10 µM (strictly) for COc1cc(C2c3ccc4ccccc4c3Oc3ncnc(NCc4ccccc4Cl)c32)cc(OC)c1OC (centres undefined)
[reply] -1

[ask] IC50 strictly < 10 µM for this compound? COc1ccc(OC)c(C2c3ccc4ccccc4c3Oc3ncnc(Nc4ccccc4F)c32)c1 (centres undefined)
[reply] 1

[ask] IC50 under 10 µM? Item: COc1ccc(Nc2ncnc3c2C(c2ccccc2)c2ccc4ccccc4c2O3)c(OC)c1 (centres undefined)
[reply] -1

[ask] In plain terms, does Fc1ccccc1Nc1ncnc2c1C(c1ccccc1)c1ccc3ccccc3c1O2 (centres undefined) come in under 10 µM for IC50?
[reply] -1

[ask] Dear reviewer, please state whether c1ccc(CCNc2ncnc3c2C(c2ccccc2)c2ccc4ccccc4c2O3)cc1 (centres undefined) has IC50 strictly beneath 10 µM.
[reply] -1

[ask] Does the reported IC50 of the following compound sit strictly below 10 µM? COc1ccc(CCNc2ncnc3c2C(c2ccccc2)c2ccc4ccccc4c2O3)c(OC)c1 (centres undefined)
[reply] -1

[ask] hey, is IC50 for COc1ccc(OC)c(C2c3ccc4ccccc4c3Oc3ncnc(Nc4ccc(Cl)cc4)c32)c1 (centres undefined) lower than 10 µM or not?
[reply] -1

====

system: HeLa; assay: Cytotoxicity against human HeLa cells assessed as decrease in cell viability by MTT assay; format: functional, cell-based
API: label(entry) gives class 1 if the entry's IC50 is strictly smaller than 10 µM; on equality or larger values it gives class 0.

[ask] Take the compound c1ccc(CNc2ncnc3c2C(c2ccccc2)c2ccc4ccccc4c2O3)cc1 (stereo unspecified) and say whether its IC50 is less than 10 µM.
[reply] class 1

[ask] Is IC50 strictly under 10 µM for the entry Clc1ccc(Nc2ncnc3c2C(c2ccccc2)c2ccc4ccccc4c2O3)cc1 (stereo unspecified) ?
[reply] class 0

[ask] hey, is IC50 for CCc1ccc(Nc2ncnc3c2C(c2ccccc2)c2ccc4ccccc4c2O3)cc1 (stereo unspecified) lower than 10 µM or not?
[reply] class 0

[ask] Please state whether IC50 is below 10 µM for Brc1ccc(Nc2ncnc3c2C(c2ccccc2)c2ccc4ccccc4c2O3)cc1 (stereo unspecified)
[reply] class 0

[ask] For this compound, is IC50 lower than 10 µM? COc1ccc(Nc2ncnc3c2C(c2cc(OC)c(OC)c(OC)c2)c2ccc4ccccc4c2O3)cc1 (stereo unspecified)
[reply] class 0

[ask] IC50 strictly < 10 µM for this compound? COc1ccc(OC)c(C2c3ccc4ccccc4c3Oc3ncnc(Nc4ccc(F)cc4)c32)c1 (stereo unspecified)
[reply] class 0
